# System: Rattus norvegicus
# METHOD_DESCRIPTION: Hypolipidemic activity was measured as reduction in rat serum triglyceride after oral administration in male Wistar rats at 10 mg / (kg day)
# Type: functional
Here, each record is paired with measured Reduction data.
The response must be a number in % with no trailing unit.

Short answer please: Reduction, Rattus norvegicus, entry CCCc1ccc(C(c2ccns2)N2CCN(C)CC2)cc1 (stereo unspecified)
7

Short answer please: Reduction, Rattus norvegicus, entry Cc1cc(C(c2ccc(C(C)C)cc2)N2CCN(CCO)CC2)sn1 (stereo unspecified)
0

Short answer please: Reduction, Rattus norvegicus, entry Cc1noc(C)c1C(OC1CCCN(C)C1)c1ccc(C(C)C)cc1 (stereo unspecified)
12

Short answer please: Reduction, Rattus norvegicus, entry CCC(C)c1ccc(C(c2cc(C)ns2)N2CCN(C)CC2)cc1 (stereo unspecified)
15

Short answer please: Reduction, Rattus norvegicus, entry Cc1cc(C(O)(c2ccc(C(C)C)cc2)C2CCN(C)CC2)sn1 (stereo unspecified)
25

Short answer please: Reduction, Rattus norvegicus, entry Cc1noc(C)c1C(c1ccc(C(C)C)cc1)N1CCN(C)CC1 (stereo unspecified)
35

Short answer please: Reduction, Rattus norvegicus, entry Cc1noc(C)c1C(c1ccc(C(C)C)cc1)N1CCN(CCO)CC1 (stereo unspecified)
56

Short answer please: Reduction, Rattus norvegicus, entry Cc1ccc(C(c2sncc2C)N2CCN(C)CC2)cc1C (stereo unspecified)
21

Short answer please: Reduction, Rattus norvegicus, entry Cc1cnsc1C(c1ccc(C(C)C)cc1)N1CCN(CC(C)O)CC1 (stereo unspecified)
22

Short answer please: Reduction, Rattus norvegicus, entry Cc1noc(C)c1C(=C1CCNCC1)c1ccc(C(C)C)cc1
46

Short answer please: Reduction, Rattus norvegicus, entry CC(C)COc1ccccc1C(c1ccns1)N1CCN(C)CC1 (stereo unspecified)
15
